# system.name: GST-HIAP1(cIAP-2) BIR 3 (Homo sapiens)
# Sequence (Q13489 236-349): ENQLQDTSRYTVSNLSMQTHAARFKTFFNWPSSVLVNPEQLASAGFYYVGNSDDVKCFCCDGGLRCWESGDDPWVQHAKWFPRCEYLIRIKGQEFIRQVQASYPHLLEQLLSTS
# protocol: Fluorescence polarization-based competition assay, cIAP-2 Bir3
pIC50: −log10 of the molar value.

| structure.smiles.string | pIC50 |
| --- | --- |
| CC(C)[C@H](NC(=O)[C@H](C)N)C(=O)N1CCC[C@H]1CSCCc1ccccc1 | > 5.00 |
| CC(C)[C@H](NC(=O)[C@H](C)N)C(=O)N1CCC[C@H]1CN(CCc1ccccc1)C(=O)CCCc1ccccc1 | > 6.00 |
| CN[C@@H](C)C(=O)N[C@H](C(=O)N1CCC[C@H]1CN(CCc1ccccc1)C(=O)CNCc1ccccc1)C(C)(C)C | > 6.00 |
| CC[C@H](N)C(=O)N[C@H](C(=O)N1CCC[C@H]1CN(C(=O)C(F)(F)F)[C@H](C)c1ccccc1)C(C)C | < 5.00 |
| CC(C)[C@H](NC(=O)[C@H](C)N)C(=O)N1CCC[C@H]1CN(CCc1ccccc1)C(=O)OCc1ccccc1 | > 6.00 |
| CC[C@H](N)C(=O)N[C@H](C(=O)N1CCC[C@H]1CNCCc1ccccc1)C(C)C | > 5.00 |
| CN[C@@H](C)C(=O)N[C@H](C(=O)N1CCC[C@H]1CN(CCc1ccccc1)C(=O)[C@H](N)Cc1ccccc1)C(C)(C)C | > 6.00 |
| CC(C)[C@H](NC(=O)[C@H](C)N)C(=O)N1CCC[C@H]1CN(CCc1ccccc1)C(=O)CCc1ccccc1 | > 6.00 |
| COCC(=O)N(CCc1ccccc1)C[C@@H]1CCCN1C(=O)[C@@H](NC(=O)[C@H](C)N)C(C)C | > 6.00 |
| CN[C@@H](C)C(=O)N[C@H](C(=O)N1CCC[C@H]1CN(C[C@@H](C)c1ccccc1)C(=O)OCc1ccccc1)C(C)(C)C | > 6.00 |
| CC(C)[C@H](NC(=O)[C@H](C)N)C(=O)N1CCC[C@H]1CN(CCc1ccccc1)S(C)(=O)=O | > 6.00 |
| CC(C)[C@H](NC(=O)[C@H](C)N)C(=O)N1CCC[C@H]1CN(CCc1ccccc1)C(=O)COc1ccccc1 | > 6.00 |
| CC[C@H](N)C(=O)N[C@H](C(=O)N1CCC[C@H]1CN(CCc1ccccc1)C(C)=O)C(C)C | > 6.00 |
| CC(C)[C@H](NC(=O)[C@H](C)N)C(=O)N1CCC[C@H]1CNCCc1ccccc1 | > 6.00 |

---

IC50 values, listed per item
# system.name: GST-HIAP2 (cIAP-1) BIR 3 (Homo sapiens)
# Sequence (Q13490 251-363): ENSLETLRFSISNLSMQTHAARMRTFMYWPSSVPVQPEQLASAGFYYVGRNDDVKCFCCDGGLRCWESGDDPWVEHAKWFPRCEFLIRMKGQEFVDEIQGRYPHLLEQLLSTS
# protocol: Fluorescence polarization-based competition assay, cIAP-1 Bir3

| compound | IC50 |
| --- | --- |
| CC[C@@H](N)C(=O)N(CCc1ccccc1)C[C@@H]1CCCN1C(=O)[C@@H](NC(=O)[C@H](C)NC)C(C)(C)C [Compound 46] | < 1 µM |
| CN[C@@H](C)C(=O)N[C@H](C(=O)N1CCC[C@H]1CN(CCc1ccccc1)C(=O)c1ccccc1)C(C)(C)C [Compound 47] | < 1 µM |
| CC[C@H](N)C(=O)N(CCc1ccccc1)C[C@@H]1CCCN1C(=O)[C@@H](NC(=O)[C@H](C)NC)C(C)(C)C [Compound 39] | < 1 µM |
| CN[C@@H](C)C(=O)N[C@@H](CCCN)C(=O)N1CCC[C@H]1CN(CCc1ccccc1)C(=O)CCc1ccccc1 [Compound 49] | < 1 µM |
| CN[C@@H](C)C(=O)N[C@H](C(=O)N1CCC[C@H]1CN(C[C@H](C)c1ccccc1)C(=O)OCc1ccccc1)C(C)(C)C [Compound 60] | < 1 µM |
| CC(C)[C@H](NC(=O)[C@H](C)N)C(=O)N1CCC[C@H]1CN(CCc1ccccc1)C(=O)COc1ccccc1 [Compound 28] | < 1 µM |
| CC(C)[C@H](NC(=O)[C@H](C)N)C(=O)N1CCC[C@H]1CN(CCc1ccccc1)S(C)(=O)=O [Compound 17] | < 1 µM |
| CN[C@@H](C)C(=O)N[C@H](C(=O)N1CCC[C@H]1CN(CCc1ccccc1)C(=O)CN(C)C)C(C)(C)C [Compound 38] | < 1 µM |
| CN[C@@H](C)C(=O)N[C@H](C(=O)N1CCC[C@H]1CN(CCc1ccccc1)C(=O)[C@H]1CCCN1)C(C)(C)C [Compound 50] | < 1 µM |
| CN[C@@H](C)C(=O)N[C@H](C(=O)N1CCC[C@H]1CN(CCc1ccccc1)C(=O)[C@H](N)Cc1ccccc1)C(C)(C)C [Compound 42] | < 1 µM |
| CN[C@@H](C)C(=O)N[C@H](C(=O)N1CCC[C@H]1CN(CCc1ccccc1)C(=O)CNc1ccccc1)C(C)(C)C [Compound 40] | < 1 µM |
| CC(C)[C@H](NC(=O)[C@H](C)N)C(=O)N1CCC[C@H]1CN(CCc1ccccc1)C(=O)CCCc1ccccc1 [Compound 31] | < 1 µM |
| CC[C@H](N)C(=O)N[C@H](C(=O)N1CCC[C@H]1CN(CCc1ccccc1)C(C)=O)C(C)C [Compound 5] | < 1 µM |
| CN[C@@H](C)C(=O)N[C@H](C(=O)N1CCC[C@H]1CN(CCc1ccccc1)C(=O)CN)C(C)(C)C [Compound 32] | < 1 µM |

---

# system.name: GST-XIAP BIR3RING (Homo sapiens)
# protocol: Fluorescence polarization-based competition assay, XIAP Bir3-RING
pIC50: −log10 of the molar value.

| structure.smiles.string | pIC50 |
| --- | --- |
| CN[C@@H](C)C(=O)N[C@H](C(=O)N1CCC[C@H]1CN(CCc1ccccc1)C(=O)CNC(C)=O)C(C)(C)C | > 6.00 |
| CC(C)[C@H](NC(=O)[C@H](C)N)C(=O)N1CCC[C@H]1CN(CCc1ccccc1)C(=O)CCCc1ccccc1 | > 6.00 |
| C[C@H](N)C(=O)N[C@H](C(=O)N1CCC[C@H]1COCc1ccccc1)C(C)(C)C | > 5.00 |
| CC(C)[C@H](NC(=O)[C@H](C)N)C(=O)N1CCC[C@H]1CN(C(=O)C(F)(F)F)[C@H]1CCCc2ccccc21 | > 5.00 |
| CC(C)[C@H](NC(=O)[C@H](C)N)C(=O)N1CCC[C@H]1CSCCc1ccccc1 | > 5.00 |
| C#CCOC[C@H](NC(=O)[C@@H](N)CO)C(=O)N1CCC[C@H]1CN(CCc1ccccc1)C(=O)C(F)(F)F | > 6.00 |
| CN[C@@H](C)C(=O)N[C@H](C(=O)N1CCC[C@H]1CN(CCc1ccccc1)S(=O)(=O)c1ccccc1)C(C)(C)C | > 6.00 |
| CC[C@H](N)C(=O)N[C@H](C(=O)N1CCC[C@H]1CN(Cc1ccccc1)C(=O)C(F)(F)F)C(C)C | > 5.00 |
| CC(C)[C@H](NC(=O)[C@H](C)N)C(=O)N1CCC[C@H]1CN(CCc1ccccc1)C(=O)OCc1ccccc1 | > 6.00 |
| CC(C)[C@H](NC(=O)[C@H](C)N)C(=O)N1CCC[C@H]1CN(C(=O)C(F)(F)F)[C@@H]1CCCc2ccccc21 | > 5.00 |
| CC[C@H](N)C(=O)N[C@H](C(=O)N1CCC[C@H]1CN(CCc1ccccc1)C(C)=O)C(C)C | > 5.00 |
| CN[C@@H](C)C(=O)N[C@H](C(=O)N1CCC[C@H]1CNCCc1ccccc1)C(C)(C)C | > 5.00 |
| CN[C@@H](C)C(=O)N[C@H](C(=O)N1CCC[C@H]1CN(CCc1ccccc1)S(=O)(=O)Cc1ccccc1)C(C)(C)C | > 6.00 |
| CC[C@H](N)C(=O)N[C@H](C(=O)N1CCC[C@H]1CN([C@H](C)c1ccccc1)S(C)(=O)=O)C(C)C | < 5.00 |

---

# system.name: GST-XIAP BIR3RING (Homo sapiens, UniProt P98170)
# Sequence (P98170 246-497): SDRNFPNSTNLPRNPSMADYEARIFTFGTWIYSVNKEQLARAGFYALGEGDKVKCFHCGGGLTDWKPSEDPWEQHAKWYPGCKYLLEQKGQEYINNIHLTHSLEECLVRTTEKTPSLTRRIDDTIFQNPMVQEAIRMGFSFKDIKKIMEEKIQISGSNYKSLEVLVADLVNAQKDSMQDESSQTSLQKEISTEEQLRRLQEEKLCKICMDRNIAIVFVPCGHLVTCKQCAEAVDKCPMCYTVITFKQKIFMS
# protocol: Fluorescence polarization-based competition assay, XIAP Bir3-RING
# Procedure: GST-XIAP BIR3RING: XIAP coding sequence amino acids 246-497 cloned into PGEX2T1 via BamH1 and AVA I. The plasmid was transformed into E. coli DH5α for use in protein expression and purification. […] For all assays, the fluorescence and fluorescence-polarization was evaluated using a Tecan Polarion instrument with the excitation filter set at 485 nm and the emission filter set at 535 nm. […] Auto-fluorescence for each compound was first assessed by performing a reading of the compound/BSA solution alone. […]
pIC50: −log10 of the molar value.
observable: pIC50

| structure.smiles.string | readout.value |
| --- | --- |
| CC(C)[C@H](NC(=O)[C@H](C)N)C(=O)N1CCC[C@H]1CN(CCCCOC(=O)c1ccccc1)CCc1ccccc1 | > 6.00 |
| CC(=O)N(CCCc1ccccc1)C[C@@H]1CCCN1C(=O)[C@@H](NC(=O)[C@H](C)N)C(C)C | > 5.00 |
| CC[C@H](N)C(=O)N[C@H](C(=O)N1CCC[C@H]1CN(C(C)=O)[C@@H]1CCCc2ccccc21)C(C)C | > 5.00 |
| CN[C@@H](C)C(=O)N[C@H](C(=O)N1CCC[C@H]1CN(CCc1ccccc1)C(=O)[C@H](N)Cc1cccnc1)C(C)(C)C | > 6.00 |
| CN[C@@H](C)C(=O)N[C@H](C(=O)N1CCC[C@H]1CN(CCc1ccccc1)C(=O)CCCN)C(C)(C)C | > 5.00 |
| CC[C@H](N)C(=O)N[C@H](C(=O)N1CCC[C@H]1CNC(=O)Cc1ccccc1)C(C)C | < 5.00 |
| CC[C@H](N)C(=O)N[C@H](C(=O)N1CCC[C@H]1CNCCc1ccccc1)C(C)C | > 5.00 |
| CN[C@@H](C)C(=O)N[C@H](C(=O)N1CCC[C@H]1CN(CCc1ccccc1)C(=O)CCC(=O)O)C(C)(C)C | > 6.00 |
| CN[C@@H](C)C(=O)N[C@H](C(=O)N1CCC[C@H]1CN(CCc1ccccc1)C(=O)[C@H](N)Cc1ccc(OC)cc1)C(C)(C)C | > 6.00 |
| CC(C)[C@H](NC(=O)[C@H](C)N)C(=O)N1CCC[C@H]1CN(CCc1ccccc1)C(=O)COc1ccccc1 | > 6.00 |
| CN[C@@H](C)C(=O)N[C@H](C(=O)N1CCC[C@H]1CN(CCc1ccccc1)C(=O)[C@@H](Cc1ccccc1)NC)C(C)(C)C | > 6.00 |
| CC[C@H](N)C(=O)N(CCc1ccccc1)C[C@@H]1CCCN1C(=O)[C@@H](NC(=O)[C@H](C)NC)C(C)(C)C | > 6.00 |
| CN[C@@H](C)C(=O)N[C@H](C(=O)N1CCC[C@H]1CN(CCc1ccccc1)C(=O)[C@H](N)Cc1ccc(F)cc1)C(C)(C)C | > 6.00 |
| CN[C@@H](C)C(=O)N[C@H](C(=O)N1CCC[C@H]1CN(CCc1ccccc1)C(=O)[C@H]1CCCN1)C(C)(C)C | > 6.00 |
| CN[C@@H](C)C(=O)N[C@H](C(=O)N1CCC[C@H]1CN(CCc1ccccc1)C(=O)CCCc1ccccc1)C(C)(C)C | > 6.00 |
| CN[C@@H](C)C(=O)N[C@H](C(=O)N1CCC[C@H]1CN(CCc1ccccc1)C(=O)CNCc1ccccc1)C(C)(C)C | > 6.00 |
| CN[C@@H](C)C(=O)N[C@H](C(=O)N1CCC[C@H]1CN(CCc1ccccc1)C(=O)[C@H](N)CCc1ccccc1)C(C)(C)C | > 5.00 |
| CN[C@@H](C)C(=O)N[C@H](C(=O)N1CCC[C@H]1CN(CCc1ccccc1)C(=O)[C@@H]1CCCN1)C(C)(C)C | > 6.00 |
| CC[C@H](N)C(=O)N[C@H](C(=O)N1CCC[C@H]1CN(C(=O)C(F)(F)F)[C@H](C)c1ccccc1)C(C)C | > 5.00 |
| CC(C)[C@H](NC(=O)[C@H](C)N)C(=O)N1CCC[C@H]1CN(CCc1ccccc1)C(=O)Cc1ccccc1 | > 6.00 |
| CC(=O)N(Cc1ccccn1)C[C@@H]1CCCN1C(=O)[C@@H](NC(=O)[C@H](C)N)C(C)C | < 5.00 |
| CCCC(=O)N(CCc1ccccc1)C[C@@H]1CCCN1C(=O)[C@@H](NC(=O)[C@H](C)N)C(C)C | > 6.00 |
| CC[C@H](N)C(=O)N[C@H](C(=O)N1CCC[C@H]1CN(C(C)=O)[C@H](C)c1ccccc1)C(C)C | < 5.00 |
| CN[C@@H](C)C(=O)N[C@H](C(=O)N1CCC[C@H]1CN(CCc1ccccc1)C(=O)OCc1ccccc1)C(C)(C)C | > 6.00 |
| CC(C)[C@H](NC(=O)[C@H](C)N)C(=O)N1CCC[C@H]1CN(CCc1ccccc1)C(=O)CCc1ccccc1 | > 6.00 |
| CN[C@@H](C)C(=O)N[C@H](C(=O)N1CCC[C@H]1CN(C[C@@H](C)c1ccccc1)C(=O)OCc1ccccc1)C(C)(C)C | > 6.00 |
| CN[C@@H](C)C(=O)N[C@H](C(=O)N1CCC[C@H]1CN(CCc1ccccc1)C(=O)CNc1ccccc1)C(C)(C)C | > 6.00 |

Taken from patent US7772177B2.
